Assayed system: EcSecA (Escherichia coli)
Sequence (P10408 whole entry): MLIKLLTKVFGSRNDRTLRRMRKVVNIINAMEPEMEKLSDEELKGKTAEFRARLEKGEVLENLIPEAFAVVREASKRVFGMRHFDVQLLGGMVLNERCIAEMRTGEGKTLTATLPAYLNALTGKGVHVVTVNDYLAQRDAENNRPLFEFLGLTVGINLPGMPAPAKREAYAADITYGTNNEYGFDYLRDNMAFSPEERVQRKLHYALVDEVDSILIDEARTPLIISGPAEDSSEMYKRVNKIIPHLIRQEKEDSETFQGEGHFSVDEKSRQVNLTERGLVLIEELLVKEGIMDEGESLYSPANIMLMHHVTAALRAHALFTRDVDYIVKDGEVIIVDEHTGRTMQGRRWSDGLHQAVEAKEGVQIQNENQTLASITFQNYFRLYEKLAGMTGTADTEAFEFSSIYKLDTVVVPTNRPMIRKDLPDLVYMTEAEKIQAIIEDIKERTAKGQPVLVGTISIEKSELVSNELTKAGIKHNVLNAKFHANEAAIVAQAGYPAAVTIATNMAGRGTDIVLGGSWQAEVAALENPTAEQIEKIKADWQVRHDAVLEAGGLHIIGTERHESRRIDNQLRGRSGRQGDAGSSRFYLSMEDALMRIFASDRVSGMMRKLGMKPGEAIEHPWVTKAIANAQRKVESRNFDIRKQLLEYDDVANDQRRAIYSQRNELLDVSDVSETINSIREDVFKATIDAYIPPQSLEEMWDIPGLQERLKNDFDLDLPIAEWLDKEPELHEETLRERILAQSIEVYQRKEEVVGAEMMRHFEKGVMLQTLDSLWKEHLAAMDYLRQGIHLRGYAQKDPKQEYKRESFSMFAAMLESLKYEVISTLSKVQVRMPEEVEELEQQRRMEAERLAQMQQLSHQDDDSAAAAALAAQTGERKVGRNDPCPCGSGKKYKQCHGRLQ
Assay explanation: Intrinsic ATPase activity of full EcSecA
Format: biochemical, E. coli
Can you tell me IC50 for the items I'm about to list?

# Compound, Assayed system, IC50
data = [
    ("CSc1nc(Cl)cc(Sc2nnc(-c3cc(C(F)(F)F)cc(C(F)(F)F)c3)[nH]2)n1 [Compound 7b]", "EcSecA (Escherichia coli)", "> 200 µM"),
]

The record that follows has no IC50 shown yet.
For reference, reported IC50 for FC(F)(F)c1cc(-c2nnc(Sc3cc(Cl)nc(Sc4ccccc4)n3)[nH]2)cc(C(F)(F)F)c1 [Compound 12a] stands at > 200 µM

---

System: E. coli NR698
Assay explanation: Bacteriostatic effect
Assay type: cell-based
Assay context: Escherichia coli, NR698, 24 h, read-out: MIC, E. coli NR698
Measurement label: MIC (µM)
Numbers only, in µM.

These solved cases illustrate the format of a correct answer.
# Compound, MIC [µM]
data = [
    ("CSc1nc(Cl)cc(Sc2nnc(-c3cc(C)cc(C)c3)[nH]2)n1 [Compound 7e]", 50),
    ("FC(F)(F)c1cc(-c2nnc(Sc3cc(Cl)nc(Oc4ccccc4)n3)[nH]2)cc(C(F)(F)F)c1 [Compound 12c]", 8.3),
    ("FC(F)(F)c1cc(-c2nnc(Sc3cc(Cl)ncn3)[nH]2)cc(C(F)(F)F)c1 [Compound 9b]", 35.4),
    ("CSc1nc(Cl)cc(Sc2nnc(-c3cccc(F)c3)[nH]2)n1 [Compound 7f]", 200),
    ("Fc1cc(F)cc(-c2nnc(Sc3cc(Cl)nc(Sc4ccccc4)n3)[nH]2)c1 [Compound 12f]", 31.3),
    ("CSc1nc(C)cc(Sc2nnc(-c3cc(C(F)(F)F)cc(C(F)(F)F)c3)[nH]2)n1 [Compound 7a]", 33.3),
    ("FC(F)(F)c1cc(-c2n[nH]c(Sc3nc(Cl)cc(Cl)n3)n2)cc(C(F)(F)F)c1 [Compound 16a]", 12.5),
]

MIC in this record for FC(F)(F)c1ccc(-c2nnc(Sc3cc(Cl)nc(Sc4ccccc4)n3)[nH]2)cc1 [Compound 12i] : 12.5

---

Assayed system: EcSecAN68 (Escherichia coli)
Assay explanation: biochemical
Design: species or system E. coli
Measurement label: IC50 (µM)
Numbers only, in µM.

As a guide, the following entries are already answered.
# Compound, Assayed system, IC50, µM
measured = [
    ("CSc1nc(Cl)c2c(n1)Sc1nnc(-c3cc(C(F)(F)F)cc(C(F)(F)F)c3)n1NC2 [Compound 25]", "EcSecAN68 (Escherichia coli)", 46),
    ("FC(F)(F)c1cc(-c2nnc(Sc3cc(Cl)ncn3)[nH]2)cc(C(F)(F)F)c1 [Compound 9b]", "EcSecAN68 (Escherichia coli)", 100),
]

Hi team, please reply with IC50 for each item in this list.
1. CSC1=NC2=C(CN1)CNn1c(nnc1-c1cc(C(F)(F)F)cc(C(F)(F)F)c1)S2 [Compound 26]
2. CSc1nccc(Sc2nnc(-c3cc(C(F)(F)F)cc(C(F)(F)F)c3)[nH]2)n1 [Compound 7c]
3. FC(F)(F)c1cc(-c2nnc(Sc3nc(Cl)cc(Cl)n3)o2)cc(C(F)(F)F)c1 [Compound 17]

1. 50
2. 95
3. 70

---

Values of MIC reported for E. coli NR698 appear below.
Give bare numbers, in µM.

# Compound, MIC / µM
measured = [
    ("CSc1nc(Cl)cc(Sc2nnc(-c3cc(F)cc(F)c3)[nH]2)n1", 50),
    ("CSc1nc(Cl)cc(Sc2nnc(-c3cc(C(F)(F)F)cc(C(F)(F)F)c3)[nH]2)n1", 4.7),
    ("CSc1nc(Cl)cc(Sc2nnc(-c3ccc(C(F)(F)F)cc3)[nH]2)n1", 25),
]

The following compounds each have a reported value; give each one's MIC.
1. COc1cc(OC)cc(-c2nnc(Sc3cc(Cl)nc(SC)n3)[nH]2)c1
2. Fc1cccc(-c2nnc(Sc3nc(Cl)cc(Cl)n3)[nH]2)c1 [Compound 16d]

[100, 200]

Consider FC(F)(F)c1cccc(-c2nnc(Sc3cc(Cl)nc(Sc4ccccc4)n3)[nH]2)c1 [Compound 12g] . Its measured MIC is 18.8

---

Assayed system: EcSecAN68 (Escherichia coli, UniProt P10408)
Sequence (P10408 1-610): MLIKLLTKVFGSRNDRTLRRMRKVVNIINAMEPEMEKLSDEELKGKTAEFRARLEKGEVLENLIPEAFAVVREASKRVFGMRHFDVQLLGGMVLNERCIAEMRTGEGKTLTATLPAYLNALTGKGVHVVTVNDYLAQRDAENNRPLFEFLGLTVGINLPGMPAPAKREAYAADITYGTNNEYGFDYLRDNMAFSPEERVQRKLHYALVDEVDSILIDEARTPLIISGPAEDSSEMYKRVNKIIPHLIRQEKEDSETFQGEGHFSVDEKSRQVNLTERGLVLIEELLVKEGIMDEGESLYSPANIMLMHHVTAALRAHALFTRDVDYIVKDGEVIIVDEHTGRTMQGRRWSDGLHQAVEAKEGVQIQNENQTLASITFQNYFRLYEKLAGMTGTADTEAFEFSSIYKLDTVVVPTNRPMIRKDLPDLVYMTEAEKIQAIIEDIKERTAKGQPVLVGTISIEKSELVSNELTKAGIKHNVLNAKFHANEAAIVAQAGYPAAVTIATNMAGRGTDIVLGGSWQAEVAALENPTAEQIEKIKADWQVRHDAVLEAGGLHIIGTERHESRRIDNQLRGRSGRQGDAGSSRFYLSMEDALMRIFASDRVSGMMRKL
Measurement label: pIC50
Give bare numbers, as −log10 of the molar value.

Reference set, count: 5
# Compound, pIC50
rows = [
    ("FC(F)(F)c1cc(-c2nnc(Sc3cc(Cl)nc(Oc4ccccc4)n3)[nH]2)cc(C(F)(F)F)c1 [Compound 12c]", 5.05),
    ("FC(F)(F)c1cc(-c2n[nH]c(Sc3nc(Cl)cc(Cl)n3)n2)cc(C(F)(F)F)c1 [Compound 16a]", 4.30),
    ("FC(F)(F)c1cc(-c2nnc(Sc3cc(Cl)nc(Sc4ccccc4)n3)[nH]2)cc(C(F)(F)F)c1 [Compound 12a]", 4.70),
    ("CSc1nc(Cl)cc(Sc2nnc(-c3cc(C)cc(C)c3)[nH]2)n1", 4.52),
    ("FC(F)(F)c1cc(-c2nnc(S)[nH]2)cc(C(F)(F)F)c1", 4.22),
]

Give me pIC50 for each of these compounds, listed below.
1. CSc1nc(Cl)cc(Sc2nnc(-c3cc(C(F)(F)F)cc(C(F)(F)F)c3)o2)n1
2. CSc1nccc(Sc2nnc(-c3cc(C)cc(C)c3)[nH]2)n1

1. 3.70
2. 4.19

---

Assayed system: EcSecA (Escherichia coli)
Assay explanation: Ion-channel activity of SecA-liposomes in oocytes, EcSecA
Format: biochemical, E. coli
Measurement label: IC50 (nM)
Numbers only, in nM.

Record FC(F)(F)c1cc(-c2nnc(Sc3cc(Cl)nc(Sc4ccccc4)n3)[nH]2)cc(C(F)(F)F)c1 [Compound 12a] / EcSecA (Escherichia coli), IC50 recorded as 1300

---

Test system: S. aureus Mu50
Assay explanation: Bacteriostatic effect
Format: cell-based
Assay context: S. aureus Mu50; label = antibiotic compared
Measurement label: Fold by which 7b and 12a are more effective than the antibiotic (MIC)

Sample answers from the record:
# Compound, Measurement
data = [
    ("CN(C)[C@@H]1C(O)=C(C(N)=O)C(=O)[C@@]2(O)C(O)=C3C(=O)c4c(O)cccc4[C@@](C)(O)[C@H]3C[C@@H]12 [tetracycline]", "> 80 fold"),
    ("CCn1cc(C(=O)O)c(=O)c2cc(F)c(N3CCNCC3)cc21 [norfloxacin]", "> 330 fold"),
    ("CC[C@H]1OC(=O)[C@H](C)[C@@H](O[C@H]2C[C@@](C)(OC)[C@@H](O)[C@H](C)O2)[C@H](C)[C@@H](O[C@@H]2O[C@H](C)C[C@H](N(C)C)[C@H]2O)[C@](C)(O)C[C@@H](C)C(=O)[C@H](C)[C@@H](O)[C@]1(C)O [erythromycin]", "> 1600 fold"),
    ("CO[C@H]1/C=C/O[C@@]2(C)Oc3c(C)c(O)c4c(O)c(c(/C=N/N5CCN(C)CC5)c(O)c4c3C2=O)NC(=O)/C(C)=C\\C=C\\[C@H](C)[C@H](O)[C@@H](C)[C@@H](O)[C@@H](C)[C@H](OC(C)=O)[C@@H]1C [rifampicin]", "> 1300 fold"),
    ("CC1(C)S[C@@H]2[C@H](NC(=O)[C@H](N)c3ccccc3)C(=O)N2[C@H]1C(=O)O [ampicillin]", "> 1300 fold"),
]

// next entry
Value of Fold by which 7b and 12a are more effective than the antibiotic (MIC) reported for the compound NC[C@H]1O[C@H](O[C@H]2[C@H](O)[C@@H](O[C@H]3O[C@H](CO)[C@@H](O)[C@H](N)[C@H]3O)[C@H](N)C[C@@H]2N)[C@H](O)[C@@H](O)[C@@H]1O [kanamycin] is > 1300 fold

---

Assayed system: UniProtKB O06446
Sequence (O06446 whole entry): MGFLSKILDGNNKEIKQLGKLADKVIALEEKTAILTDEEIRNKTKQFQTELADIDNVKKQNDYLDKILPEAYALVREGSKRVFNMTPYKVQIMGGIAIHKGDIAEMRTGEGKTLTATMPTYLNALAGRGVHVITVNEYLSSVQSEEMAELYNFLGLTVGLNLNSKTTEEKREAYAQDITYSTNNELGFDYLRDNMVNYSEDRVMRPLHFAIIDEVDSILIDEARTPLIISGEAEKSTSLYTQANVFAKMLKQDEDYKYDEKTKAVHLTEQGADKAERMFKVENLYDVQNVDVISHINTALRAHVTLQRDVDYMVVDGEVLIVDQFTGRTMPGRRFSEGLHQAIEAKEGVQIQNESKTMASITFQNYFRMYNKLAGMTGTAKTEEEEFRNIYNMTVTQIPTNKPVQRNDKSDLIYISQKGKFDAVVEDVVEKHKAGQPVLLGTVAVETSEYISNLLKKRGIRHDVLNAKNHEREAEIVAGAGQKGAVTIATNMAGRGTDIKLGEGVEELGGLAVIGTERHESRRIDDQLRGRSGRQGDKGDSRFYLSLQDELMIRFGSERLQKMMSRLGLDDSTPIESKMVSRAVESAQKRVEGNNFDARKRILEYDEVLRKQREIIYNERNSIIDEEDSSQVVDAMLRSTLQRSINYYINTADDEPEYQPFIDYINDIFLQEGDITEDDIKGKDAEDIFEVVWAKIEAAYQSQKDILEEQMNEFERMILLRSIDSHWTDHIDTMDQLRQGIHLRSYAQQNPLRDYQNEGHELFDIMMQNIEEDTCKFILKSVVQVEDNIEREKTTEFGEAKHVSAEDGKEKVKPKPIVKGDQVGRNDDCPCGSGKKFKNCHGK
Assay explanation: Ion-channel activity of SecA-liposomes in oocytes, SaSecA1
Measurement label: pIC50
Numbers only, as −log10 of the molar value.

Item: FC(F)(F)c1cc(-c2nnc(Sc3cc(Cl)nc(Sc4ccccc4)n3)[nH]2)cc(C(F)(F)F)c1 [Compound 12a] | pIC50: 6.00

---

Entries with reported MIC on E. coli NR698

Below are worked cases with known answers.
# Compound, Measurement
measured = [
    ("FC(F)(F)c1cc(-c2nnc(Sc3cc(Cl)nc(Sc4ccccc4)n3)[nH]2)cc(C(F)(F)F)c1 [Compound 12a]", "3.1 µM"),
    ("FC(F)(F)c1cc(-c2nnc(S)[nH]2)cc(C(F)(F)F)c1 [Compound 5a]", "> 250 µM"),
    ("CSC1=NC2=C(CN1)CNn1c(nnc1-c1cc(C(F)(F)F)cc(C(F)(F)F)c1)S2 [Compound 26]", "> 100 µM"),
]

Each compound below has a recorded value; state its MIC.
1. CSc1nc(Cl)cc(Sc2nnc(-c3cccc(C(F)(F)F)c3)[nH]2)n1 [Compound 7j]
2. CSc1nccc(Sc2nnc(-c3cc(C(F)(F)F)cc(C(F)(F)F)c3)[nH]2)n1 [Compound 7c]
3. Cc1cc(C)cc(-c2n[nH]c(Sc3nc(Cl)cc(Cl)n3)n2)c1 [Compound 16b]
4. CSc1nc(Cl)c2c(n1)Sc1nnc(-c3cc(C(F)(F)F)cc(C(F)(F)F)c3)n1N=C2 [Compound 24]

> 250 µM
50 µM
> 164 µM
12.5 µM

FYI, the data here is from paper PMC4778717.
